Tested on: MCF7
Assay: Growth inhibition of Homo sapiens (human) MCF7 cells after 48 hr by SRB assay
Type: functional
Settings: MCF7, 48 h
GI50 less than 20 µM is Criterion met; GI50 greater than or equal to 20 µM is Criterion not met.

Worked cases, answers included:
| MOLECULE | CLASS_NAME |
| --- | --- |
| COc1cccc2c1C(=O)c1c(O)c3c(c(O)c1C2=O)C[C@@](O)(C(=O)CO)C[C@@H]3O[C@H]1C[C@H](N)[C@H](O)[C@H](C)O1 [DOXORUBICIN] | Criterion met |
| CCOC(=O)c1c(N)cc(N)n1-n1c(C)nc2ccccc2c1=O | Criterion met |
| Cc1nc2ccccc2c(=O)n1NC(=O)C1Nc2ccccc2C1=O (stereo not given) | Criterion met |

Now let's try a different one.
Problem: Determine if Cc1nc2ccccc2c(=O)n1NC(=S)Nc1ccccc1 shows GI50 strictly lower than 20 µM.
Solution: Criterion not met
